target: BLK (Homo sapiens, UniProt P51451)
Sequence (P51451 whole entry): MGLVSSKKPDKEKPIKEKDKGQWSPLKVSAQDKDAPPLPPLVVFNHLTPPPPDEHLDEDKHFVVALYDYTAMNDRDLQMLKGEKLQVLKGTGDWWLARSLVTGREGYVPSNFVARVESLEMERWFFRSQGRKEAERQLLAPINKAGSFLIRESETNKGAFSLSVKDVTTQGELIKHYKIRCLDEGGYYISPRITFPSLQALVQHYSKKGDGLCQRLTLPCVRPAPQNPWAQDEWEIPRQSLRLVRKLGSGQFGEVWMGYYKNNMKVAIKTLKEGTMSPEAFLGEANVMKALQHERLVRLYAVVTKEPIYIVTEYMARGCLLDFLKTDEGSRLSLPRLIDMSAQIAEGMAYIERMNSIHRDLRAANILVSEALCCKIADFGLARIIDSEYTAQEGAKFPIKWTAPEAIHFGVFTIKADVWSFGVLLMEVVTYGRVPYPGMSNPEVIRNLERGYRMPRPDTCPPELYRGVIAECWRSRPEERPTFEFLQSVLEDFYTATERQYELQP
parameter: IC50 (µM)
Just the number in µM, nothing appended.

Incoming: Looking for the measured IC50 of C[C@H]1CNC(=O)c2cnn3ccc(nc23)N[C@H](C)c2cc(F)ccc2O1 [Compound 1] , can you help?
Outgoing: 0.0323

* * *

target: TXK (Homo sapiens)
Sequence (P42681 whole entry): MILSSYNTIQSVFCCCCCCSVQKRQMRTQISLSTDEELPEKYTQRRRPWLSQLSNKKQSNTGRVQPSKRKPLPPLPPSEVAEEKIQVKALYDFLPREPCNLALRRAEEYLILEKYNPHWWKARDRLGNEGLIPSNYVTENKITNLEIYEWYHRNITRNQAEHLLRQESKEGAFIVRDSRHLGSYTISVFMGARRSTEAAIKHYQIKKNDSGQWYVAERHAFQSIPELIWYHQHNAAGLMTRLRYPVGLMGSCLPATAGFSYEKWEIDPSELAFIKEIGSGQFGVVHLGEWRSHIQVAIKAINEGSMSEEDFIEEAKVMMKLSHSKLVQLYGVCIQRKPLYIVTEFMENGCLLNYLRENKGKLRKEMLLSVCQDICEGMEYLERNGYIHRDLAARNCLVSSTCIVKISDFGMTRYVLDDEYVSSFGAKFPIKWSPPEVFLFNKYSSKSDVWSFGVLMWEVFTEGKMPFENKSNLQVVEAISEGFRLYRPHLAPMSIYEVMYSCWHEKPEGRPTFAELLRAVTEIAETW
parameter: pIC50
Keep it numeric: pIC50 is minus log10 of the concentration in mol/L.

Incoming: Looking for the measured pIC50 of C[C@H]1CNC(=O)c2cnn3ccc(nc23)N[C@H](C)c2cc(F)ccc2O1 [Compound 1] , can you help?
Outgoing: 8.50

* * *

test system: Ba/F3 SDC4-ROS1 G2032R cell line; experiment: Cell proliferation assay (CellTiter-Glo); assay type: cell-based; details: Mus musculus, BaF3; 72 hours
parameter: pIC50
Keep it numeric: pIC50 is minus log10 of the concentration in mol/L.

Incoming: Looking for the measured pIC50 of C[C@H]1CNC(=O)c2cnn3ccc(nc23)N[C@H](C)c2cc(F)ccc2O1 , can you help?
Outgoing: 8.30
